- Tested on: MDX203 Mini-PDX models (conditional reprogramming cells from a gallbladder carcinoma patient)
- measurement.description: Anti-tumor efficacy in MDX203 Mini-PDX model
- Assay type: in vivo, human
- measurement.context: Mini-PDX devices s.c. in nude mice, CTG cell viability day 7, doses, routes and schedules per Table 15
Could you please report measured T/C % (Tumor relative proliferation rate) for the items listed next?
Number in %, nothing else.

Query: Given the molecule Nc1ccn([C@@H]2O[C@H](CO)[C@@H](O)C2(F)F)c(=O)n1 [Gemcitabine] , what is its reported T/C % (Tumor relative proliferation rate)?
Response: 77

Query: And the next one, O=c1[nH]cc(F)c(=O)[nH]1 [5-Fu] ?
Response: 83

Query: And the next one, O=C1[O][Pt]2([NH][C@@H]3CCCC[C@H]3[NH]2)[O]C1=O [Oxaliplatin] ?
Response: 43

Query: And the next one, CCc1c2c(nc3ccc(OC(=O)N4CCC(N5CCCCC5)CC4)cc13)-c1cc3c(c(=O)n1C2)COC(=O)[C@]3(O)CC [Irinotecan] ?
Response: 48

# credit: patent US20210047622A1
